System: TK-10
Test: NCI tumour cell line growth inhibition, 48 h
The source made the active and inactive calls. No stated cut-off is given here; in the data, active = GI50 up to about 1.1 µM and inactive = higher.
Your reply should match one of these outcome classes. active, inactive

Example cases with answers are listed next.
> print(dat)
                                   compound  category
1  COc1ccc(NC(=S)N/N=C(\c2ccccc2)c2ccccn2)cc1    active
2   Cc1cc2c(cc1CO)N1Cc3cc(C)c(CO)cc3N(C2)C1  inactive
3  O=C(O)CSC(NC(=O)C(C(F)(F)F)C(F)(F)F)(C(F)(F)F)C(F)(F)F  inactive
4            O=C1Nc2ccccc2Nc2nc3cccccc-3c21  inactive
5  O=[N+]([O-])/C(C(Cl)=C(Cl)Cl)=C1\Nc2ccccc2O1  inactive
6  O=S1(=O)c2ccccc2C(Nc2ccccc2)N1c1ccccc1 (stereo not drawn)  inactive
7  C=CC[C@H](C)CCC(=O)N1[C@H]2CC3CC[C@@]2(CS1(=O)=O)C3(C)C  inactive

Please share the test call associated with COc1cc(C2c3cc4c(cc3[C@@H](OCCN(C)C)C3COC(=O)[C@H]23)OCO4)cc(OC)c1O (stereo partly drawn) .
inactive

* * *

Test system: SK-OV-3
Assay: NCI tumour cell line growth inhibition, 48 h
Active and inactive are the calls of the source. Cut-off read from the data, not from the text of the source: active = GI50 up to about 1.1 µM and inactive = higher.
Assign a class; possible classes are 1 (active), -1 (inactive)

MOLECULE	TESTED TARGET	CATEGORY
Cc1c(N)nc([C@H](CC(N)=O)NC[C@H](N)C(N)=O)nc1C(=O)N[C@H](C(=O)N[C@H](C)[C@@H](O)CC(=O)N[C@H](C(=O)NC(O[C@@H]1O[C@@H](C)[C@@H](N)[C@@H](O)[C@H]1O)C(O)c1nc(-c2nc(C(=O)NCCCCN)cs2)cs1)[C@@H](C)O)[C@@H](O[C@@H]1O[C@@H](CO)[C@@H](O)[C@H](O)[C@@H]1O[C@H]1O[C@H](CO)[C@@H](O)[C@H](OC(N)=O)[C@@H]1O)c1c[nH]cn1 (some centres not stated)	SK-OV-3	-1
Nc1ccc(N)c2c1C(=O)c1c(N)ccc(N)c1C2=O	SK-OV-3	-1
COc1cc(/C=C2\CCc3cc(OC)c(OC)cc3C2=O)cc(OC)c1	SK-OV-3	-1
N#CC(C#N)=CNCCN1CCN(C=C(C#N)C#N)CC1	SK-OV-3	-1
Cc1cnc2c(c1)C(=O)C1=C(C2=O)C2OC(=O)CC2OC1(C)C (configuration not stated)	SK-OV-3	-1
COc1c(Cl)c2c(c(OC)c1OC)-c1ccc(OC)c(=O)c(Cl)c1C(NC(C)=O)CC2 (configuration not stated)	SK-OV-3	1

Shifting focus to the molecule that follows.
Write down the call the test reported for this molecule. Item: CC(C)C(Sc1nc(-c2ccccc2)c(-c2ccccc2)[nH]1)C(=O)N/N=C/c1ccc([N+](=O)[O-])cc1 (configuration not stated)
-1

* * *

Tested on: LOX IMVI
Experiment: NCI tumour cell line growth inhibition, 48 h
Active and inactive are the calls of the source. No stated cut-off is given here; in the data, active = GI50 up to about 1.1 µM and inactive = higher.
Hi! Could you answer with just one of these? active, inactive

Just curious, what result did O=C(O)CN(CC(=O)O)Cc1cc(C#Cc2ccc(C#Cc3ccccc3)cc2)cc(CN(CC(=O)O)CC(=O)O)n1 get here?
inactive

Can you handle NCC(=O)Nc1ccc(S(=O)(=O)O)c2cc(S(=O)(=O)O)cc(S(=O)(=O)O)c12 next?
inactive

Another molecule to look at: CN(C)CCNC(=O)c1ccc(NCCCN(C)CCCNc2ccc3c(=O)n(CCN(C)C)c(=O)n4c5ccccc5c(=O)c2c34)c2c(O)c3ccccc3nc12
active

Follow-up entry: O=C1NC(=O)C23C(=O)NC(=O)C12C1C=CC3CC1 (centres undefined)
inactive

* * *

Test system: KM12
Test: NCI tumour cell line growth inhibition, 48 h
Active and inactive are the calls of the source. Rule as the data show it: active = GI50 up to about 1.1 µM and inactive = higher.
A correct response names exactly one class from true (1) (active), false (0) (inactive)

Please review the entries below; each comes with its answer.
COMPOUND	CATEGORY
CCCCCCc1cc(C(=O)Nc2cccc(C(F)(F)F)c2)nc(N)n1	false (0)
C=CCC1(O)c2cccc(O)c2C(=O)c2c(O)cccc21	false (0)
COCN(C)c1nc(N(C)C)nc(N(C)C)n1	false (0)
CCOC(=O)C(=O)Nc1cc(Cl)c(Cl)cc1Cl	false (0)
CC(C)c1ccc(/C=C2\CSCC3=C2N=C(S)NC3c2ccc(C(C)C)cc2)cc1 (stereo not given)	false (0)

Hello, I am checking results. What call was entered for COC(C[C@H]1CCCC[C@]1(O)/C(=C\CO[Si](C(C)C)(C(C)C)C(C)C)Sc1ccccc1)OC ?
false (0)

Further, for CCCCOCCOC1=C(Cl)C(=O)c2c(O)ccc(O)c2C1=O ?
false (0)

And what about the compound COC(=O)C1=C(c2ccc3c(c2)OCO3)OC(c2ccc3c(c2)OCO3)C1 (stereo not given) ?
false (0)

// next record Oc1[nH]c(Nc2cccc(CC(F)(F)F)c2)nc2ncnc1-2
false (0)

And what about the compound C/C(=N/NC(=S)Nc1cccc(C)c1)c1ccccn1 ?
true (1)

And what about the compound O=S1(=O)c2ccccc2NC(=S)CC1c1ccccc1 (stereo not given) ?
false (0)

* * *

Tested on: NCI-H226
Experiment: NCI tumour cell line growth inhibition, 48 h
Activity calls are given as the source filed them. No stated cut-off is given here; in the data, active = GI50 up to about 1.1 µM and inactive = higher.
Output constraint: value belongs to active, inactive

Reference set (10 entries):
> print(dat)
                                    compound  category
 1  COc1ccc(C2OC(=O)c3ccc4ccccc4c32)c(C)c1 (configuration not stated)  inactive
 2  CC1=C(C(=O)Nc2ccc([N+](=O)[O-])cc2)C(c2ccccc2O)C(C(=O)Nc2ccc([N+](=O)[O-])cc2)=C(C)N1  inactive
 3  CC(=O)C1C(=O)C(=O)N(c2ccccc2N2C(=O)C(=O)C(C(C)=O)C2=O)C1=O (configuration not stated)  inactive
 4  COc1c2c(cc3nc4ccccc4nc13)CCC(C(C)(C)O)C2 (configuration not stated)  inactive
 5  O=C(O)CN(CC(=O)O)Cc1cc(C#Cc2ccc(C#Cc3ccccc3)cc2)cc(CN(CC(=O)O)CC(=O)O)n1  inactive
 6  COc1cc(/C=C2\CCc3cc(OC)c(OC)cc3C2=O)cc(OC)c1  inactive
 7                Sc1ccc2ccccc2c1CNCc1ccccc1  inactive
 8  CN(C)CCn1c(=O)c2ccc(NCCCN(C)CCCNc3ccc4c(=O)n(CCN(C)C)c(=O)n5c6ccc(O)cc6c(=O)c3c45)c3c(=O)c4cc(O)ccc4n(c1=O)c23    active
 9  CC1(C)CC2=C(Sc3ccccc3N2)C(=O)C1C(=O)C(=O)Nc1cc(Cl)ccc1Cl (configuration not stated)  inactive
10          Oc1cc(-c2cccs2)nc2cc3c(cc12)OCO3  inactive

Please state the recorded outcome for this compound: COn1oc(=O)c2ccccc21
inactive

And what about the compound CC(=O)N1N=C(c2ccc3ccccc3c2O)CC1c1ccc(N(C)C)cc1 (configuration not stated) ?
inactive

What about O=C(O)/C(Cl)=C(\Cl)C(=O)Nc1ccccc1 ?
inactive

Repeat for the following compound: COc1ccc(NC(=O)CC(=O)NN2C(=O)/C(=C/c3ccc(N(CCC#N)CCC#N)cc3C)N=C2/C=C\c2ccccc2)cc1
inactive

Follow-up item: Cn1c(=S)sc2nc3ccccc3n2c1=S
inactive

Request: O=S(=O)(O)c1cc(/N=N/c2cc(S(=O)(=O)O)c3cccnc3c2O)ccc1/C=C/c1ccc(/N=N/c2cc(S(=O)(=O)O)c3cccnc3c2O)cc1S(=O)(=O)O
inactive

Another: Cc1ccc(NC(=O)C2C(=O)N(c3ccc(C)c(C)c3)C(=O)/C2=N\NC(N)=S)cc1C (configuration not stated)
inactive

* * *

System: MOLT-4
Test: NCI tumour cell line growth inhibition, 48 h
Where a name gives a salt, the structure may show the parent alone. Activity calls are given as the source filed them. Cut-off read from the data, not from the text of the source: active = GI50 up to about 1.1 µM and inactive = higher.
READOUT LABEL: GI50

COMPOUND	TESTED TARGET	OBS VALUE
O=C1C(O)=C(Cl)C(=O)c2c(O)ccc(O)c21	MOLT-4	10 µM (inactive)
O=C(NC(Cc1ccc(I)cc1)C(=O)O)c1cccc(Br)c1 (stereo not drawn)	MOLT-4	33.7 µM (inactive)
CCC[C@H](C)[C@H]1NC(=O)[C@@H](NC(=O)[C@@H](CC(C)C)N(C)C(=O)C2CCCN2C(=O)[C@H](C)O)[C@@H](C)OC(=O)[C@H](CC(C)C)N(C)C(=O)[C@@H]2CCCN2C(=O)[C@H](CC(C)C)NC(=O)[C@@H](C)C(=O)[C@H](C(C)C)OC(=O)C[C@@H]1O (stereo partly drawn)	MOLT-4	< 0.0025 µM (active)
O=C(O)c1nc(-c2ccccn2)c(-c2ccccn2)nc1C(=O)O	MOLT-4	2.3 µM (inactive)
C/C(=C\c1ccccc1)n1c(=O)cc(C)n1C	MOLT-4	25.7 µM (inactive)

--- query ---
Look at this compound and give its reported GI50. O=C(OCCN1CCCCCC1)C(c1ccsc1)C1CCCCC1 (stereo not drawn) [CETIEDIL CITRATE]
21.4 µM (inactive)

Cited source for all entries: ChEMBL document CHEMBL1201862
